# SYSTEM_TESTED: Human Erythrocyte DNP-SG ATPase (RalBP1) (Homo sapiens)
# Construct: ATPase activity of purified protein fractions was then measured in the absence and presence of several stimulators; from tissue; host or cells: human erythrocytes
# ASSAY_OVERVIEW: Stimulation of ATPase activity of purified human erythrocyte DNP-SG ATPase (RalBP1)
# Assay type: biochemical
# CONDITIONS: ATPase activity; stimulator concentration generally 2-fold the Km; about 2 μg protein, 9 replicates
# Description: ATPase activity of purified protein fractions was then measured in the absence and presence of several stimulators. Each assay was performed with 9 replicates and about 2 μg protein was used for each determination. Km values were obtained from double reciprocal plots of stimulator vs. activity.
Binary label based on Fold Activation with cut-off 2 Fold: below gives condition met, not below gives condition not met.

(Q) Given N[C@@H](CCC(=O)N[C@@H](CSCc1ccc([N+](=O)[O-])cc1)C(=O)NCC(=O)O)C(=O)O , is recorded Fold Activation strictly lower than 2 Fold?
(A) condition met

(Q) Then what about the compound CCCSC[C@H](NC(=O)CC[C@H](N)C(=O)O)C(=O)NCC(=O)O ?
(A) condition met

(Q) Would you mind doing CCCCCCCCCCSC[C@H](NC(=O)CC[C@H](N)C(=O)O)C(=O)NCC(=O)O as well?
(A) condition met

(Q) Try the compound CCCCC/C=C\C\C=C/C=C/C=C/[C@@H](SC[C@H](NC(C)=O)C(=O)O)[C@@H](O)CCCC(=O)O
(A) condition not met

(Q) Same question for COc1cccc2c1C(=O)c1c(O)c3c(c(O)c1C2=O)C[C@@](O)([C@@H](O)CO)C[C@@H]3O[C@H]1C[C@H](N)[C@H](O)[C@H](C)O1 [Dihydroadriamycin] please.
(A) condition met

(Q) Next record, please: CCCCC/C=C\C\C=C/C=C/C=C/[C@@H](SC[C@H](N)C(=O)NCC(=O)O)[C@@H](O)CCCC(=O)O
(A) condition met

(Q) Repeat with CSC[C@H](NC(=O)CC[C@H](N)C(=O)O)C(=O)NCC(=O)O
(A) condition met

(Q) Similarly, CCCCC/C=C\C\C=C/C=C/C=C/[C@@H](SC[C@H](NC(=O)CC[C@H](N)C(=O)O)C(=O)NCC(=O)O)[C@@H](O)CCCC(=O)O ?
(A) condition not met

(Q) # repeat for N[C@@H](CCC(=O)N[C@@H](CSCC(=O)c1ccc(Cl)cc1)C(=O)NCC(=O)O)C(=O)O
(A) condition met

(Q) Follow-up item: COc1cccc2c1C(=O)c1c(O)c3c(c(O)c1C2=O)C[C@@](O)(C(=O)CO)CC3
(A) condition not met

(Q) Please do the same for CCCCCCCCC1OC1CCCCCCCCSC[C@H](NC(=O)CC[C@H](N)C(=O)O)C(=O)NCC(=O)O (stereo partly shown) as well.
(A) condition met
